Attribution: paper doi:10.1101/362830v1

- TARGET OF ASSAY: ShHTL7 (Striga hermonthica, UniProt A0A0M3PNA2)
- Sequence (A0A0M3PNA2 1-271): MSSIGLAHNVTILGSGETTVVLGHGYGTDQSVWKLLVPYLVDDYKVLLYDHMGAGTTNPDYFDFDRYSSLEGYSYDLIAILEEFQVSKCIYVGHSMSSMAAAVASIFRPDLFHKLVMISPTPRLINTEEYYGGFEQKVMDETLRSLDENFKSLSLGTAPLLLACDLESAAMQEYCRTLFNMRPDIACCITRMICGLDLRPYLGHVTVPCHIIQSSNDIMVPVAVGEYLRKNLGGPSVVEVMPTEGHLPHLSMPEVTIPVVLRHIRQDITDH
MEASURE NAME: pIC50
Reminder that pIC50 means the negative base-10 logarithm of the concentration expressed in mol/L.

Entry CC1=C[C@@H](O/C=C2/C(=O)O[C@@H]3c4ccccc4C[C@H]23)OC1=O has what pIC50?
6.82
